- System: A54
- ASSAY REMARKS: Cell growth inhibition, SRB assay
- Format: cell-based, human
- CONDITION DESCRIPTION: Homo sapiens; Lung A54, 3% FBS
Could you please report measured GI50 for the items listed next?
Answers are plain numbers, in µM.

Look up GI50 for the entries below, preserving their order.
1. CCCCCCCCCCOc1cccc(C(=O)N[C@H](CC(=O)[O-])C[N+](C)(C)C)c1 [Example S67]
2. CCCCCCCCCCCCCCc1ccc(NS(=O)(=O)N[C@H](CC(=O)O)C[N+](C)(C)C)cc1 [Example S90]
3. CCCCCCCCCCc1ccc(C(=O)N[C@H](CC(=O)[O-])C[N+](C)(C)C)cc1 [Example S66]

Reply:
1. 88
2. 21
3. 28

Ask: Look up GI50: CCCCCCCCCCc1ccc(S(=O)(=O)N[C@H](CC(=O)O)C[N+](C)(C)C)cc1 [Example S75, 2,2,2-trifluoroacetate]
Reply: 31

###

- EXPERIMENTAL SYSTEM: human CPT1A (Homo sapiens)
- Construct: made in house; host or cells: Saccharomyces cerevisiae (pESC-trp) or cultured mammalian cells (pCDNA3.1); mitochondrial extract
- ASSAY REMARKS: Human CPT1A LC/MS assay
- Assay type: biochemical
- CONDITION DESCRIPTION: dose response assay, n=17
ENDPOINT LABEL: IC50

Ask: Request the reported IC50 associated with C[N+](C)(C)C[C@H](N)CC(=O)[O-] [L-aminocarnitine, reference compound]
Reply: 7 µM

###

- EXPERIMENTAL SYSTEM: human CPT1A (Homo sapiens)
- Construct: made in house; host or cells: Saccharomyces cerevisiae (pESC-trp) or cultured mammalian cells (pCDNA3.1); mitochondrial extract
- ASSAY REMARKS: Human CPT1A LC/MS assay
- Format: biochemical
- CONDITION DESCRIPTION: human CPT1A LC/MS assay, dose response format
- Excerpt: Nucleotide sequences encoding human CPT1 enzymes were individually cloned into the yeast expression vector pESC-trp at the Cla1 (5′ terminus) and Pac1 (3′ terminus) restriction sites by PCR amplification of the open reading frame using oligonucleotide primers designed to encode the wild-type CPT1 protein sequence. […] The integrity of the isolated mitochondria was monitored by determining the activity of succinate dehydrogenase in the mitochondrial preparations. […]
pIC50: −log10 of the molar value.
ENDPOINT LABEL: pIC50

Some solved cases for reference:
COMPOUND	pIC50
CCCn1cc(C(=O)N[C@H](CC(=O)[O-])C[N+](C)(C)C)c(C)n1	2.60 to 3.00
Cc1cc(COc2ccccc2)oc1C(=O)N[C@H](CC(=O)[O-])C[N+](C)(C)C	3.00 to 4.00
CCCOc1ccc(C(=O)N[C@H](CC(=O)[O-])C[N+](C)(C)C)cc1	3.00 to 4.00
CCCCCc1ccc(C#Cc2ccc(C(=O)N[C@H](CC(=O)[O-])C[N+](C)(C)C)o2)cc1 [Example S115, 2,2,2-trifluoroacetate]	≥ 6.00
C[N+](C)(C)C[C@@H](CC(=O)O)NC(=O)c1ccc(C#Cc2ccsc2)o1 [Example S116, 2,2,2-trifluoroacetate]	4.00 to 5.00

Return reported pIC50 values for all items listed beneath this line.
1. CCCCCCCCCc1ccc(NS(=O)(=O)N[C@H](CC(=O)[O-])C[N+](C)(C)C)cc1
2. C[N+](C)(C)C[C@@H](CC(=O)O)NS(=O)(=O)c1ccc(C#Cc2ccccc2)s1 [Example S78, 2,2,2-trifluoroacetate]
3. C[N+](C)(C)C[C@@H](CC(=O)O)NC(=O)c1cccc(CCc2ccccc2)c1
4. C[N+](C)(C)C[C@@H](CC(=O)O)NS(=O)(=O)c1ccc(CCc2ccccc2)s1 [Example S79, 2,2,2-trifluoroacetate]
5. C[N+](C)(C)C[C@@H](CC(=O)O)NC(=O)c1ccc(CCc2ccccc2)s1
6. Cc1ccc(CCc2ccc(S(=O)(=O)N[C@H](CC(=O)O)C[N+](C)(C)C)s2)cc1 [Example S81, 2,2,2-trifluoroacetate]
7. CCCCCCCCCCCCc1ccc(NS(=O)(=O)N[C@H](CC(=O)O)C[N+](C)(C)C)cc1
8. CCCCCCCCCCc1ccc(C(=O)N[C@H](CC(=O)[O-])C[N+](C)(C)C)cc1

Reply:
1. ≥ 6.00
2. 3.00 to 4.00
3. 3.00 to 4.00
4. 4.00 to 5.00
5. ≥ 6.00
6. 5.00 to 6.00
7. ≥ 6.00
8. ≥ 6.00

// for each compound below, give its pIC50
1. CCCCCCC#Cc1ccc(NS(=O)(=O)N[C@H](CC(=O)[O-])C[N+](C)(C)C)cc1
2. CCCCCCCOc1ccc(NC(=O)N[C@H](CC(=O)[O-])C[N+](C)(C)C)cc1

Reply:
1. 5.00 to 6.00
2. 4.00 to 5.00

###

Would you mind telling me the reported GI50 of each entry?
- Test system: H358
- ASSAY REMARKS: Cell growth inhibition, SRB assay
- Assay type: cell-based, human
- CONDITION DESCRIPTION: Homo sapiens, NCI-H358; Lung H358, 3% FBS; read-out: GI50
Param answer (str): number followed by unit.

COMPOUND	RECORDED RESULT
CCCCCCCCc1ccc(NC(=O)N[C@H](CC(=O)[O-])C[N+](C)(C)C)cc1	500 nM
CCCCCCCCCCOc1ccc(C(=O)N[C@H](CC(=O)O)C[N+](C)(C)C)cc1 [Example S63, 2,2,2-trifluoroacetate]	400 nM
CCCCCCCCCCc1ccc(C(=O)N[C@H](CC(=O)[O-])C[N+](C)(C)C)cc1	400 nM

Kindly give each listed record's GI50.
1. CCCCCCCCCCc1ccc(S(=O)(=O)N[C@H](CC(=O)O)C[N+](C)(C)C)cc1 [Example S75, 2,2,2-trifluoroacetate]
2. CCCCCCCCCCOc1cccc(C(=O)N[C@H](CC(=O)[O-])C[N+](C)(C)C)c1
3. CCCCCCCCCCCCc1ccc(NS(=O)(=O)N[C@H](CC(=O)O)C[N+](C)(C)C)cc1
4. CCCCCCCOc1ccc(NC(=O)N[C@H](CC(=O)[O-])C[N+](C)(C)C)cc1
5. CCCCCCCCCCCCCCc1ccc(NS(=O)(=O)N[C@H](CC(=O)O)C[N+](C)(C)C)cc1

Reply:
["2800 nM", "700 nM", "1400 nM", "3400 nM", "1100 nM"]

###

- EXPERIMENTAL SYSTEM: human CPT1A (Homo sapiens, UniProt P50416)
- Construct: made in house; host or cells: Saccharomyces cerevisiae (pESC-trp) or cultured mammalian cells (pCDNA3.1); mitochondrial extract
- Sequence (P50416 1-773): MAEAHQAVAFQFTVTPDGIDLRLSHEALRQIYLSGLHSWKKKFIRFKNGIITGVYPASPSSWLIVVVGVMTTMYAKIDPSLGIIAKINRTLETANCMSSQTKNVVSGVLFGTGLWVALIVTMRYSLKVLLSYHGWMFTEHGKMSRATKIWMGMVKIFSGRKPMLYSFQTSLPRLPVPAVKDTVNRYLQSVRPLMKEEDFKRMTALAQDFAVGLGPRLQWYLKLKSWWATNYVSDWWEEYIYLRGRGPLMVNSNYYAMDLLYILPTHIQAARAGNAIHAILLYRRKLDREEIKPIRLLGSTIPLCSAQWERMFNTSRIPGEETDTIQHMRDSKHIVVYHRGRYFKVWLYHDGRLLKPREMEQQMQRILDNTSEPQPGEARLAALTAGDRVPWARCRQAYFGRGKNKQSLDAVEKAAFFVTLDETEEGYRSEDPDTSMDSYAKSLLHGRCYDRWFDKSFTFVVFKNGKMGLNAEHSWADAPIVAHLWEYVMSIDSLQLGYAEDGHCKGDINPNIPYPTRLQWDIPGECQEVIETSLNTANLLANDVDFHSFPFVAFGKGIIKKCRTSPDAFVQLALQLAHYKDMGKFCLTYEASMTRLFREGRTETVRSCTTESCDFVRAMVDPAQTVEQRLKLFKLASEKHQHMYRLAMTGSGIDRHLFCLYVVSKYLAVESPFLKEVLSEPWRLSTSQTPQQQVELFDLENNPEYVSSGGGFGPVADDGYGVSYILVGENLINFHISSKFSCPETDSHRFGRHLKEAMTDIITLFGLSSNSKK
- ASSAY REMARKS: Human CPT1A LC/MS assay
- Format: biochemical
- CONDITION DESCRIPTION: human CPT1A LC/MS assay, dose response format
Counter-ions that a name gives are not always drawn.
ENDPOINT LABEL: IC50

Below are worked cases with known answers.
COMPOUND	IC50
C[N+](C)(C)C[C@@H](CC(=O)[O-])NC(=O)Nc1cccc(Oc2ccccc2)c1 [Example S38]	100 to 1000 µM
CCCCc1ccc(NC(=O)N[C@H](CC(=O)[O-])C[N+](C)(C)C)c(C)c1 [Example S13]	1000 to 2500 µM
CCCCCCCCc1cccc(N(C)S(=O)(=O)N[C@H](CC(=O)O)C[N+](C)(C)C)c1 [Example S113, 2,2,2-trifluoroacetate]	1 to 10 µM

Go through the items and report each one's IC50.
1. C[N+](C)(C)C[C@@H](CC(=O)O)NS(=O)(=O)c1ccc(-c2ccccn2)s1 [Example S21, 2,2,2-trifluoroacetate]
2. CCCCCCCc1ccc(NS(=O)(=O)N[C@H](CC(=O)[O-])C[N+](C)(C)C)cc1 [Example S27]
3. C[N+](C)(C)C[C@@H](CC(=O)O)NC(=O)c1ccc(C#Cc2ccsc2)s1 [Example S97, 2,2,2-trifluoroacetate]
4. C[N+](C)(C)C[C@@H](CC(=O)O)NC(=O)c1cccc(-c2cc[nH]n2)c1 [Example S57, trifluoroacetate]

Reply:
1000 to 2500 µM
≤ 1 µM
≤ 1 µM
> 2500 µM

For each of the compounds below, state IC50.
1. CCCCCCCCCCCCN(c1ccccc1)S(=O)(=O)N[C@H](CC(=O)[O-])C[N+](C)(C)C [Example S32]
2. CCCc1ccc(OCc2ccc(C(=O)N[C@H](CC(=O)[O-])C[N+](C)(C)C)o2)c(OC)c1 [Example S55]
3. C[N+](C)(C)C[C@@H](CC(=O)[O-])NC(=O)Nc1ccc(Oc2ccccc2)cc1 [Example S8]
4. CCCCC#Cc1ccc(C(=O)N[C@H](CC(=O)[O-])C[N+](C)(C)C)o1 [Example S4]
5. CCCCCc1ccc(CCc2ccc(S(=O)(=O)N[C@H](CC(=O)O)C[N+](C)(C)C)s2)cc1 [Example S83, 2,2,2-trifluoroacetate]
6. Cc1cccc(C#Cc2ccc(S(=O)(=O)N[C@H](CC(=O)O)C[N+](C)(C)C)s2)c1 [Example S76, 2,2,2-trifluoroacetate]
7. CCCCCCc1ccc(C#Cc2ccc(C(=O)N[C@H](CC(=O)O)C[N+](C)(C)C)o2)s1 [Example S118, 2,2,2-trifluoroacetate]

Reply:
10 to 100 µM
10 to 100 µM
10 to 100 µM
10 to 100 µM
1 to 10 µM
100 to 1000 µM
1 to 10 µM
